# ASSAYED_SYSTEM: T1, RecE564 K643A (Escherichia coli K12, UniProt P15032 564-866, K643A)
# T1 sequence: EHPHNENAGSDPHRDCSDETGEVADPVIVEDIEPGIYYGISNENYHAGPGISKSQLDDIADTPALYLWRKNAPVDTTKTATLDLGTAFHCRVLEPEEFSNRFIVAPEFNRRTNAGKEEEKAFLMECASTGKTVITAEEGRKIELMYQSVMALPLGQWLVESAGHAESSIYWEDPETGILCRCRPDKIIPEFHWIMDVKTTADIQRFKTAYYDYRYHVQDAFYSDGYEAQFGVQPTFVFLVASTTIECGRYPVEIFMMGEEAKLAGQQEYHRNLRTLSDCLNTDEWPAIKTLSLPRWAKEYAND
# ASSAY_METHOD_TEXT: fluorescence anisotropy
MEASURED_QUANTITY: pKd
pKd (log units): -log10 of the concentration in mol/L.

Exercise: Entry F25 (dsDNA) DNA 1: TAGAGCTTAATTGCTGAATCTGGTG DNA 2: CACCAGATTCAGCAATTAAGCTCTA has what pKd?
Key: 6.68
